Reference for the values: ChEMBL document CHEMBL6087454

target.under.test: Peroxisome proliferator-activated receptor gamma (Homo sapiens)
experiment.notes: Displacement of fluormone pan-PPAR green from recombinant GST-tagged human PPAR-gamma ligand binding domain (E235 to Y505 residues) extracted from Escherichia coli BL21 (DE3) cells by TR-FRET assay
assay.readout: log10 IC50 (log10 of the value in µM)
Scale: log10; quantity: IC50; unit before log: µM

compound	test.value
O=S1(c2cccc(Cl)c2)=N[Se]c2ccc(Cl)cc21 (configuration not stated)	-0.19
Cc1ccccc1S1(=O)=N[Se]c2cccc(C)c21 (configuration not stated)	1.59

Kindly give each listed record's log10 IC50.
1. CCCc1ccc(S2(=O)=N[Se]c3cc(CCC)ccc32)cc1 (configuration not stated)
2. O=[N+]([O-])c1ccc(S2(=O)=N[Se]c3cc([N+](=O)[O-])ccc32)cc1 (configuration not stated)
3. Cc1ccc(S2(=O)=N[Se]c3cc(C)ccc32)cc1 (configuration not stated)
4. Cc1cccc(S2(=O)=N[Se]c3ccc(C)cc32)c1 (configuration not stated)

OUTPUT:
1: 0.32; 2: -0.17; 3: 1.10; 4: 0.92

INPUT: # lookup: log10 IC50 of O=S1(c2ccc(C(F)(F)F)cc2)=N[Se]c2cc(C(F)(F)F)ccc21 (configuration not stated)
OUTPUT: 0.24

====

target.under.test: Peroxisome proliferator-activated receptor gamma (Homo sapiens)
experiment.notes: Binding affinity to recombinant GST-tagged human PPAR-gamma ligand binding domain (E235 to Y505 residues) extracted from Escherichia coli BL21 (DE3) cells assessed as inhibition constant in presence of fluormone pan-PPAR green tracer by TR-FRET assay
Kindly state Ki for each of the entries shown.
Answers are plain numbers, in µM.

// below: answered compounds
compound	target.under.test	Ki, µM
CC(C)(C)c1ccc(S2(=O)=N[Se]c3cc(C(C)(C)C)ccc32)cc1 (configuration not stated)	Peroxisome proliferator-activated receptor gamma (Homo sapiens)	0.45
Cc1ccc(S2(=O)=N[Se]c3cc(C)ccc32)cc1 (configuration not stated)	Peroxisome proliferator-activated receptor gamma (Homo sapiens)	4.52
O=[N+]([O-])c1ccc(S2(=O)=N[Se]c3cc([N+](=O)[O-])ccc32)cc1 (configuration not stated)	Peroxisome proliferator-activated receptor gamma (Homo sapiens)	0.24
Cc1cc(C)cc(S2(=O)=N[Se]c3c(C)cc(C)cc32)c1 (configuration not stated)	Peroxisome proliferator-activated receptor gamma (Homo sapiens)	13.7
O=S1(c2ccc(-c3ccccc3)cc2)=N[Se]c2cc(-c3ccccc3)ccc21 (configuration not stated)	Peroxisome proliferator-activated receptor gamma (Homo sapiens)	0.6

// moving on: another record for Ki
INPUT: Request body: readout Ki, system Peroxisome proliferator-activated receptor gamma (Homo sapiens), query Cc1ccccc1S1(=O)=N[Se]c2cccc(C)c21 (configuration not stated) . Return the value.
OUTPUT: 14.1

====

target.under.test: Peroxisome proliferator-activated receptor gamma (Homo sapiens, UniProt P37231)
experiment.notes: Binding affinity to recombinant GST-tagged human PPAR-gamma ligand binding domain (E235 to Y505 residues) extracted from Escherichia coli BL21 (DE3) cells assessed as inhibition constant in presence of fluormone pan-PPAR green tracer by TR-FRET assay
Kindly state pKi for each of the entries shown.
Answers are plain numbers, as −log10 of the molar value.

// below: answered compounds
compound	target.under.test	assay.readout	test.value
O=S1(c2ccc(Cl)cc2)=N[Se]c2cc(Cl)ccc21 (stereo not drawn)	Peroxisome proliferator-activated receptor gamma (Homo sapiens, UniProt P37231)	pKi	4.84
CCCc1ccc(S2(=O)=N[Se]c3cc(CCC)ccc32)cc1 (stereo not drawn)	Peroxisome proliferator-activated receptor gamma (Homo sapiens, UniProt P37231)	pKi	6.12
Cc1ccc(S(=O)(=O)Oc2ccc(S3(=O)=N[Se]c4cc(OS(=O)(=O)c5ccc(C)cc5)ccc43)cc2)cc1 (stereo not drawn)	Peroxisome proliferator-activated receptor gamma (Homo sapiens, UniProt P37231)	pKi	6.91

Kindly give each listed record's pKi.
1. Cc1cccc(S2(=O)=N[Se]c3ccc(C)cc32)c1 (stereo not drawn)
2. O=S(=O)(Oc1ccc(S2(=O)=N[Se]c3cc(OS(=O)(=O)C(F)(F)F)ccc32)cc1)C(F)(F)F (stereo not drawn)
3. O=S1(c2ccc(Br)cc2)=N[Se]c2cc(Br)ccc21 (stereo not drawn)
4. COc1cccc(S2(=O)=N[Se]c3ccc(OC)cc32)c1 (stereo not drawn)
5. O=S1(c2cccc(Cl)c2)=N[Se]c2ccc(Cl)cc21 (stereo not drawn)

OUTPUT:
[5.53, 6.05, 6.28, 5.93, 6.64]

INPUT: # lookup: pKi of O=S1(c2ccc(C(F)(F)F)cc2)=N[Se]c2cc(C(F)(F)F)ccc21 (stereo not drawn)
OUTPUT: 6.21

====

target.under.test: Peroxisome proliferator-activated receptor gamma (Homo sapiens)
Sequence (P37231 whole entry): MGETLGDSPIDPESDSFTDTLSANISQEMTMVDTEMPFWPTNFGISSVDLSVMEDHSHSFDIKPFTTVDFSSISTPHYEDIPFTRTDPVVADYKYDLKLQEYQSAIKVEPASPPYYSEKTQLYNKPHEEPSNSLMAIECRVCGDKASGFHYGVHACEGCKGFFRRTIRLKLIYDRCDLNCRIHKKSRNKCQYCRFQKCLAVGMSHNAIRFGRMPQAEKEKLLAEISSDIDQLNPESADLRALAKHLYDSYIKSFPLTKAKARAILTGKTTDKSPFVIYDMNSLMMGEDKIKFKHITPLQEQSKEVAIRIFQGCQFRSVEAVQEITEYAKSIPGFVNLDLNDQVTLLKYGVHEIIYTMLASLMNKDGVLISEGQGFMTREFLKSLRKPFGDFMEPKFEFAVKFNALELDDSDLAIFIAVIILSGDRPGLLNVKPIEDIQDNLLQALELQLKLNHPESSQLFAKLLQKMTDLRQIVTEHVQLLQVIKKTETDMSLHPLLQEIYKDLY
experiment.notes: Displacement of fluormone pan-PPAR green from recombinant GST-tagged human PPAR-gamma ligand binding domain (E235 to Y505 residues) extracted from Escherichia coli BL21 (DE3) cells by TR-FRET assay
assay.readout: pIC50
Give bare numbers, as −log10 of the molar value.

Kindly give each listed record's pIC50.
1. Cc1ccc(S(=O)(=O)Oc2ccc(S3(=O)=N[Se]c4cc(OS(=O)(=O)c5ccc(C)cc5)ccc43)cc2)cc1 (configuration not stated)
2. O=S1(c2ccc(Cl)cc2)=N[Se]c2cc(Cl)ccc21 (configuration not stated)
3. O=S(=O)(Oc1ccc(S2(=O)=N[Se]c3cc(OS(=O)(=O)C(F)(F)F)ccc32)cc1)C(F)(F)F (configuration not stated)
4. O=S1(c2ccc(Br)cc2)=N[Se]c2cc(Br)ccc21 (configuration not stated)

OUTPUT:
1: 6.46; 2: 4.39; 3: 5.61; 4: 5.83

====

target.under.test: Peroxisome proliferator-activated receptor gamma (Homo sapiens)
experiment.notes: Displacement of fluormone pan-PPAR green from recombinant GST-tagged human PPAR-gamma ligand binding domain (E235 to Y505 residues) extracted from Escherichia coli BL21 (DE3) cells by TR-FRET assay
assay.readout: IC50

// below: answered compounds
compound	IC50
O=S1(c2ccccc2)=N[Se]c2ccccc21 (stereo not drawn)	> 50 µM
O=S1(CCl)=N[Se]c2ccccc21 (stereo not drawn)	> 50 µM

// moving on: another record for IC50
INPUT: # lookup: IC50 of CS1(=O)=N[Se]c2cc(Cl)ccc21 (stereo not drawn)
OUTPUT: > 50 µM
